molecular target: T1, mouse ACVR2A (mouse, UniProt P27038 20-135, limits assumed); test: ELISA; also: test concentration or dose not given here
T1 construct: coated antigen of the initial ELISA
T1 sequence (P27038 20-135 limits assumed): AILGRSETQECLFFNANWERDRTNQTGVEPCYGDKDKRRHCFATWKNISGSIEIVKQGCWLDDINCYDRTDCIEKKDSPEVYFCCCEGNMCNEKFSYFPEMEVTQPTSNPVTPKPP
Quick rule for you: optical density under 3 OD gets fulfilled, anything else gets not fulfilled.

[[record]]
binder = "371_B09 (antibody, V domains shown, Group III) VH: EVQLLESGGGLVQPGGSLRLSCAASGFTFSSYSMNWVRQAPGKGLEWVAGINYNSGYTGYADSVKGRFTISRDNSKNTLYLQMNSLRAEDTAVYYCARGANWHDTHLDYWGQGTLVTVSS VL: DIQMTQSPSSLSASVGDRVTITCRASQSILSYVNWYQQKPGKAPKLVIYATTSLASGVPSRFSGSGSGTDFTLTISSLQPEDFATYYCQQSYDTPLTFGGGTKVEIK"
classassignment = "fulfilled"


Take the binder 373_F11 (antibody, V domains shown, Group III) VH: EVQLLESGGGLVQPGGSLRLSCAASGFTFDSYGMHWVRQAPGKGLEWVSGINYNSGYTSYADSVKGRFTISRDNSKNTLYLQMNSLRAEDTAVYYCARGANWHDTHLDYWGQGTLVTVSS VL: DIQMTQSPSSLSASVGDRVTITCRASQSIVSYVNWYQQKPGKAPKLLIYAATSRASGVPSRFSGSGSGTDFTLTISSLQPEDFATYYCQQSYNLPLTFGGGTKVEIK and say whether its optical density is less than 3 OD.
not fulfilled

Quick one: 373_C10 (antibody, V domains shown, Group III) VH: EVQLLESGGGLVQPGGSLRLSCAASGFTFSSYSMNWVRQAPGKGLEWVAGINYNGGYTSYADSVKGRFTISRDNSKNTLYLQMNSLRAEDTAVYYCARGANWHDTALDYWGQGTLVTVSS VL: DIQMTQSPSSLSASVGDRVTITCRASQSILTYVNWYQQKPGKAPKLLIYAATSRASGVPSRFSGSGSGTDFTLTISSLQPEDFATYYCQQSYDNPLTFGGGTKVEIK
not fulfilled

Quick one: 370_D01 (antibody, V domains shown, Group III) VH: EVQLLESGGGLVQPGGSLRLSCAASGFTFSSYSMNWVRQAPGKGLEWVSSINYNGGYTGYADSVKGRFTISRDNSKNTLYLQMNSLRAEDTAVYYCARGANWHDTALDYWGQGTLVTVSS VL: DIQMTQSPSSLSASVGDRVTITCRASQSILSYLNWYQQKPGKAPKLLIYAATSRHSGVPSRFSGSGSGTDFTLTISSLQPEDFATYYCQQSYNTPLTFGGGTKVEIK
not fulfilled

Quick one: 371_H06 (antibody, V domains shown, Group III) VH: EVQLLESGGGLVQPGGSLRLSCAASGFTFDSYGMNWVRQAPGKGLEWVSGINYNGGYTSYADSVKGRFTISRDNSKNTLYLQMNSLRAEDTAVYYCARGANWHDTALDYWGQGTLVTVSS VL: DIQMTQSPSSLSASVGDRVTITCRASQSISSYLNWYQQKPGKAPKLVIYAVTSRASGVPSRFSGSGSGTDFTLTISSLQPEDFATYYCQQSYDLPLTFGGGTKVEIK
not fulfilled

Quick one: 373_D12 (antibody, V domains shown, Group III) VH: EVQLLESGGGLVQPGGSLRLSCAASGFTFDSYSMNWVRQAPGKGLEWVSSINYNSGYKGYADSVKGRFTISRDNSKNTLYLQMNSLRAEDTAVYYCARGANWHDTHLDYWGQGTLVTVSS VL: DIQMTQSPSSLSASVGDRVTITCRASQSILSYVNWYQQKPGKAPKLLIYAATSRASGVPSRFSGSGSGTDFTLTISSLQPEDFATYYCQQSYSLPLTFGGGTKVEIK
not fulfilled

Quick one: 367_H03 (antibody, V domains shown, Group III) VH: EVQLLESGGGLVQPGGSLRLSCAASGFTFSSYGMNWVRQAPGKGLEWVAGINYNSGYTSYADSVKGRFTISRDNSKNTLYLQMNSLRAEDTAVYYCARGANWHDTHLDYWGQGTLVTVSS VL: DIQMTQSPSSLSASVGDRVTITCRASQSIITYVNWYQQKPGKAPKLLIYAATSLASGVPSRFSGSGSGTDFTLTISSLQPEDFATYYCQQSYDLPLTFGGGTKVEIK
fulfilled

Quick one: 376_A03 (antibody, V domains shown, Group III) VH: EVQLLESGGGLVQPGGSLRLSCAASGFTFSSYGMNWVRQAPGKGLEWVAGINYNGGYTGYADSVKGRFTISRDNSKNTLYLQMNSLRAEDTAVYYCARGANWHDTALDYWGQGTLVTVSS VL: DIQMTQSPSSLSASVGDRVTITCRASQSILTYLNWYQQKPGKAPKLLIYAATSRASGVPSRFSGSGSGTDFTLTISSLQPEDFATYYCQQSYSTPLTFGGGTKVEIK
not fulfilled

Quick one: 374_H11 (antibody, V domains shown, Group III) VH: EVQLLESGGGLVQPGGSLRLSCAASGFTFSSYSMNWVRQAPGKGLEWVSGINYNGGYTSYADSVKGRFTISRDNSKNTLYLQMNSLRAEDTAVYYCARGANWHDTALDYWGQGTLVTVSS VL: DIQMTQSPSSLSASVGDRVTITCRASQSIISYVNWYQQKPGKAPKLVIYAATSLHSGVPSRFSGSGSGTDFTLTISSLQPEDFATYYCQQSYSNPLTFGGGTKVEIK
not fulfilled

Quick one: 371_E07 (antibody, V domains shown, Group III) VH: EVQLLESGGGLVQPGGSLRLSCAASGFTFDSYSMNWVRQAPGKGLEWVAGINYNGGYTSYADSVKGRFTISRDNSKNTLYLQMNSLRAEDTAVYYCARGANWHDTALDYWGQGTLVTVSS VL: DIQMTQSPSSLSASVGDRVTITCRASQSIISYLNWYQQKPGKAPKLLIYAATSLASGVPSRFSGSGSGTDFTLTISSLQPEDFATYYCQQSYESPLTFGGGTKVEIK
not fulfilled

These data points were gathered from patent US20210380703A1.
